# melting point annotations
experimental.endpoint: melting point

compound	experimental.endpoint	reported.measurement
Cc1oc(-c2ccccc2)nc1COc1ccc(COc2cncc(CC#N)c2)cc1	melting point	137 to 138 °C
COCCOc1cc(NC(=O)OC(C)(C)C)c(N)cc1C#Cc1ccccc1	melting point	105 to 107 °C
CC(=O)NC1(C)CCN(CCCOc2ccc(F)cc2)CC1	melting point	103 °C
CCCC1=C(C#N)C(c2cccc3oc(C)nc23)c2c[nH]nc2N1 (centres undefined)	melting point	208 °C
CC(=O)Nc1nc(CCc2ccc(NC(=N)N)cc2)c(Cc2ccc(S(C)(=O)=O)cc2)s1	melting point	228 to 230 °C
CC1(C)CCC(C)(C)c2cc(-c3cccc(-c4ccc(C(=O)O)cc4)c3O)ccc21	melting point	121 °C
COC(=O)N=C(NC(=O)OC)Nn1cccc1C(=O)OC	melting point	160 °C
CCN(CC)CCNC(=O)c1cc(Cl)c(N)cc1OCCN	melting point	97 to 99 °C
CNC(=O)c1ccccc1Nc1nc(Nc2ccc3c(c2)N(C)CCN(S(C)(=O)=O)C3)ncc1Cl	melting point	200 to 207 °C

====

# melting point annotations

compound	melting point
OCCN1C2CCC1CC(c1ccc3ccccc3c1)C2 (stereo not given)	84 to 88 °C
COc1ccccc1N1CCN(CCCNC(=O)c2cccc3c(=O)cc(-c4ccccc4)sc23)CC1	144 to 146 °C
Cc1ccc2[nH]nc(S(C)=O)c(=O)c2c1 (stereo not given)	265 to 267 °C
Cn1c(=O)sc2cc(N)ccc21	188 to 190 °C
CCCCCCCCCCCCCCCCCCOc1cc(OCCOc2ccc3ccccc3c2)cc(C(=O)O)c1	93 to 94 °C
CSc1cnc(NC(=O)c2ccc(OC(C)=O)cc2)s1	193 to 196 °C
O=C(C1CCCCC1)N(CCN1CCN(CC(O)c2ccccc2)CC1)c1ccccn1 (stereo not given)	140 to 142 °C
c1ccc(Oc2ncc(-c3cnc(-c4ccccc4)[nH]3)cn2)cc1	254 °C
COC12CC(CCCO)CN(C)C1Cc1c[nH]c3cccc2c13 (stereo not given)	190 to 195 °C
Cc1ccc(C=CC(=O)c2ccc3c(c2)C(C)(C)CCC3(C)C)cc1	153 to 154 °C

====

# melting point annotations

compound	melting point
N=C(NN=Cc1ccc(OC(F)(F)C(F)F)cc1)NN=Cc1ccc(C(F)(F)F)cc1	132 to 137 °C
COC(=O)c1ccc(-c2ccc3cc(OS(=O)(=O)C(F)(F)F)c(C45CC6CC(CC(C6)C4)C5)cc3c2)cc1	226 to 227 °C
CC(C)NC(=O)c1ccc(N2CCC(N3C(=O)OCc4ccccc43)CC2)nc1	> 230 °C
O=C(N[C@@H](Cc1ccccc1)C[C@H](O)[C@H](Cc1ccccc1)NC(=O)OCc1nccs1)OCc1nccs1	66 to 69 °C
c1ccc(-c2ncc(-c3nnc(-c4ccccc4)[nH]3)cn2)cc1	280 to 282 °C
CNC(=O)N1CC(Oc2ccccc2C(N)=O)C1	236 to 240 °C
CC(C)(C)c1ccc(CNC(=O)NCc2ccc(NS(C)(=O)=O)c(F)c2)cc1	95 °C
CNC(=O)Oc1cccc(C2CCCN2CCN2C(=O)c3ccccc3C2=O)c1 (centres undefined)	96 to 98 °C
O=C(O)C1CCCCc2c(-c3ccc(Cl)cc3)noc2C1 (centres undefined)	215 °C
